Provide the recorded IC50 for the entries that follow.
- targetOrTestSystem: cPLA2 crudely purified from the cytoplasm fraction of U937 (Homo sapiens)
- Construct: cPLA2 crudely purified from the cytoplasm fraction of U937; endogenous in cells; host or cells: U937 cells (cytoplasm fraction, crude purification)
- Sequence (P47712 1-749): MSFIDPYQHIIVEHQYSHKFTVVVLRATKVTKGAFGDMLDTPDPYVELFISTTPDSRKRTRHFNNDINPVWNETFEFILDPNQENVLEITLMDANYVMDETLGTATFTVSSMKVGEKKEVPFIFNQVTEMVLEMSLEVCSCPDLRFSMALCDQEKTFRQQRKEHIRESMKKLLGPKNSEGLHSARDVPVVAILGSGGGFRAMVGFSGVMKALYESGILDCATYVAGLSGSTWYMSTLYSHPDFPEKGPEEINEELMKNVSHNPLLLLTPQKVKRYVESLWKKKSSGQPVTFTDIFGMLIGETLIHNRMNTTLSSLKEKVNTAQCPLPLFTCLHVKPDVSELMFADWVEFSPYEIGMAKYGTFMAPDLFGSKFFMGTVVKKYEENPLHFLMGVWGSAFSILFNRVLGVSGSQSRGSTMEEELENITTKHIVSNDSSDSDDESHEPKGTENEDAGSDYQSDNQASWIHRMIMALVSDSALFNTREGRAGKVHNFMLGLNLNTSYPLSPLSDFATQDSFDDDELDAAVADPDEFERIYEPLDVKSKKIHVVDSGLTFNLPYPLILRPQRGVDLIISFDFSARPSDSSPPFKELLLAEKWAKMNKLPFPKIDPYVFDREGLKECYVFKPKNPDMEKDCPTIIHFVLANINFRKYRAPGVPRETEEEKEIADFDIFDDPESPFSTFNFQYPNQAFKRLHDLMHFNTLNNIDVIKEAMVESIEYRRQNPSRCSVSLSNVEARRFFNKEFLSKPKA
- testProtocol: Measurement of cPLA2 inhibitory activity (release of [14C]-arachidonic acid from phosphatidyl choline liposome)
- Assay type: biochemical
- particulars: cPLA2 from U937 cytoplasm fraction, [14C]arachidonyl-phosphatidyl choline liposome, 37° C., 60 minutes; read-out: cPLA2 inhibitory activity, 50% inhibiting concentration IC50

The following compounds have reported results that may help.
[[record]]
smilesentry = "O=C(CCc1ccc2c(c1)c(CCc1ccccc1)cn2-c1ccc(O)cc1)NO"
result = "> 3 µM"

[[record]]
smilesentry = "Cc1ccc(S(=O)(=O)NC(=O)CCc2ccc3c(c2)c(CCc2ccccc2)cn3-c2ccc(Oc3ccccc3)cc2)cc1"
result = "> 3 µM"


Here is the next item to consider.
**Query** Retrieve IC50 measured for CS(=O)(=O)NC(=O)CCc1ccc2c(c1)c(CCc1ccccc1)cn2-c1ccc(Oc2ccccc2)cc1 and print it.
**Result** > 3 µM

====

Provide the recorded pIC50 for the entries that follow.
- targetOrTestSystem: cPLA2 crudely purified from the cytoplasm fraction of U937 (Homo sapiens, UniProt P47712)
- Construct: cPLA2 crudely purified from the cytoplasm fraction of U937; endogenous in cells; host or cells: U937 cells (cytoplasm fraction, crude purification)
- testProtocol: Measurement of cPLA2 inhibitory activity (release of [14C]-arachidonic acid from phosphatidyl choline liposome)
- Assay type: biochemical
- particulars: cPLA2 from U937 cytoplasm fraction, [14C]arachidonyl-phosphatidyl choline liposome, 37° C., 60 minutes; read-out: cPLA2 inhibitory activity, 50% inhibiting concentration IC50
Structures can show the parent of a compound that is named as a salt.
Answers are plain numbers, as −log10 of the molar value.

The following molecules have reported results that may help.
[[record]]
molecule = "CC(=O)Nc1cccc(-n2cc(CCc3ccccc3)c3cc(CCC(=O)O)ccc32)c1"
measuredparameter = "pIC50"
recordednumber = 6.69

[[record]]
molecule = "O=C(O)CCc1ccc2c(c1)c(CCc1ccccn1)cn2-c1ccc(OCc2ccccc2)cc1"
measuredparameter = "pIC50"
recordednumber = 7.72

[[record]]
molecule = "O=C(O)CCc1ccc2c(c1)c(CCc1ccccc1)cn2-c1ccc(OC(F)F)cc1 [Example 190]"
measuredparameter = "pIC50"
recordednumber = 7.55


Give pIC50 for all molecules that follow.
1. O=C(O)CCc1ccc2c(c1)c(CCc1ccccc1)cn2-c1ccc(Cc2ccncc2)cc1 [Example 237, hydrochloride]
2. O=C(O)/C=C/c1ccc2c(c1)c(CCc1ccccn1)cn2-c1ccc(OCc2ccccc2)cc1

**Result**
1: 6.71; 2: 6.96

====

- targetOrTestSystem: cPLA2 crudely purified from the cytoplasm fraction of U937 (Homo sapiens)
- Construct: cPLA2 crudely purified from the cytoplasm fraction of U937; endogenous in cells; host or cells: U937 cells (cytoplasm fraction, crude purification)
- Sequence (P47712 1-749): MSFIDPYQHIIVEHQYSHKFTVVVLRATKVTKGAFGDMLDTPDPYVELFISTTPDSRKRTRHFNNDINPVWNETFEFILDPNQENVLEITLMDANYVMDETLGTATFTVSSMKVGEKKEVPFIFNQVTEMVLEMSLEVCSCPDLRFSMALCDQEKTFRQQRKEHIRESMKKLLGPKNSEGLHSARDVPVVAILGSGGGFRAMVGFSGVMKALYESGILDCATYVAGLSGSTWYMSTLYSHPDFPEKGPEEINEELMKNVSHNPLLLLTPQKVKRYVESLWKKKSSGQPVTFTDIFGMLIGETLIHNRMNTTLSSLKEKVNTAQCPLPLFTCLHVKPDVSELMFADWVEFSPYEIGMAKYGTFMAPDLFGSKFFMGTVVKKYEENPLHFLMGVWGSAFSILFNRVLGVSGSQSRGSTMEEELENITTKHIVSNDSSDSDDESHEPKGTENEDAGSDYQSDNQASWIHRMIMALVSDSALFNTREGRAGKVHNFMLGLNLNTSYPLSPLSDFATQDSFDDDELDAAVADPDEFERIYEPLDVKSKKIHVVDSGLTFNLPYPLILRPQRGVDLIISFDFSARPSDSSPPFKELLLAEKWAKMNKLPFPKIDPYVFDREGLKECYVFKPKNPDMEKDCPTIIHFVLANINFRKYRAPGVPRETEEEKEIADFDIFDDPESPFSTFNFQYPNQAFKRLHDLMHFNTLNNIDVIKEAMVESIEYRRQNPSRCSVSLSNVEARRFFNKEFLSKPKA
- testProtocol: Measurement of cPLA2 inhibitory activity (release of [14C]-arachidonic acid from phosphatidyl choline liposome)
- Format: biochemical
measuredParameter: IC50 (µM)
Numbers only, in µM.

[[record]]
molecule = "O=C(O)/C=C/c1ccc2c(c1)c(C(=O)Cc1ccc(F)cc1)cn2-c1ccccc1 [Example 60]"
targetortestsystem = "cPLA2 crudely purified from the cytoplasm fraction of U937 (Homo sapiens)"
recordednumber = 5.72

[[record]]
molecule = "O=C(O)/C=C/c1ccc2c(c1)c(C(=O)Cc1ccc(Cl)cc1)cn2-c1ccccc1 [Example 56]"
targetortestsystem = "cPLA2 crudely purified from the cytoplasm fraction of U937 (Homo sapiens)"
recordednumber = 6.4


Here is the next item to consider.
**Query** Retrieve IC50 measured for O=C(O)CCc1ccc2c(c1)c(C(=O)c1ccccc1)cn2-c1ccccc1 [Example 4] and print it.
**Result** 0.146

====

Provide the recorded pIC50 for the entries that follow.
- targetOrTestSystem: cPLA2 crudely purified from the cytoplasm fraction of U937 (Homo sapiens)
- Construct: cPLA2 crudely purified from the cytoplasm fraction of U937; endogenous in cells; host or cells: U937 cells (cytoplasm fraction, crude purification)
- testProtocol: Measurement of cPLA2 inhibitory activity (release of [14C]-arachidonic acid from phosphatidyl choline liposome)
- Format: biochemical
- particulars: cPLA2 from U937 cytoplasm fraction, [14C]arachidonyl-phosphatidyl choline liposome, 37° C., 60 minutes; read-out: cPLA2 inhibitory activity, 50% inhibiting concentration IC50
Structures can show the parent of a compound that is named as a salt.
One number for each entry, as −log10 of the molar value.

[[record]]
compound = "COc1ccc(-n2cc(CCc3ccccc3)c3cc(CCC(=O)O)ccc32)cc1 [Example 77]"
recordednumber = 7.59

[[record]]
compound = "O=C(O)CCc1ccc2c(c1)c(CCc1ccccc1)cn2-c1ccc(OCCO)cc1 [Example 228]"
recordednumber = 8.40

[[record]]
compound = "CC(Cc1cn(-c2ccccc2)c2ccc(CCC(N)=O)cc12)c1ccccc1 (stereo not drawn) [Example 29]"
recordednumber = 4.67

[[record]]
compound = "CN(C)c1ccc(-n2cc(CCc3ccccc3)c3cc(CCC(=O)O)ccc32)nc1 [Example 138, hydrochloride]"
recordednumber = 7.47

[[record]]
compound = "O=C(O)CCc1ccc2c(c1)c(CCc1ccccc1)cn2-c1ccc(OCCCO)cc1 [Example 328]"
recordednumber = 7.24


**Query** Retrieve pIC50 measured for CC(Cc1cn(-c2ccccc2)c2ccc(CCC(=O)O)cc12)c1ccccc1 (stereo not drawn) [Example 28] and print it.
**Result** 6.59

====

- targetOrTestSystem: cPLA2 crudely purified from the cytoplasm fraction of U937 (Homo sapiens, UniProt P47712)
- Construct: cPLA2 crudely purified from the cytoplasm fraction of U937; endogenous in cells; host or cells: U937 cells (cytoplasm fraction, crude purification)
- testProtocol: Measurement of cPLA2 inhibitory activity (release of [14C]-arachidonic acid from phosphatidyl choline liposome)
- Assay type: biochemical
- particulars: cPLA2 from U937 cytoplasm fraction, [14C]arachidonyl-phosphatidyl choline liposome, 37° C., 60 minutes; read-out: cPLA2 inhibitory activity, 50% inhibiting concentration IC50
Lab note - cut at 300 nM for IC50: rule met if strictly below, rule not met if not.

Reference set (4 entries):
[[record]]
compound = "O=C(O)CCc1ccc2c(c1)c(CCc1ccccc1)cn2-c1ccc(OCc2cccnc2)cc1 [Example 248]"
classname = "rule met"

[[record]]
compound = "COCC(=O)Nc1ccc(-n2cc(CCc3ccccc3)c3cc(CCC(=O)O)ccc32)cc1 [Example 197]"
classname = "rule met"

[[record]]
compound = "O=C(O)CCc1ccc2c(c1)c(CCc1ccccc1)cn2-c1ccccc1 [Example 16]"
classname = "rule met"

[[record]]
compound = "O=C(O)CCc1ccc2c(c1)c(CCc1ccccc1)cn2-c1ccc(CN2CCCC2)cc1 [Example 306]"
classname = "rule not met"


**Query** # check: IC50 < 300 nM for O=C(O)CCc1ccc2c(c1)c(CCc1ccccc1)cn2-c1ccc(OCCc2ccccn2)cc1 [Example 251]
**Result** rule met

**Query** # check: IC50 < 300 nM for CSc1ccc(-n2cc(CCc3ccccc3)c3cc(CCC(=O)O)ccc32)cc1 [Example 334]
**Result** rule met
